# tested.on: GABAB receptor (Rattus norvegicus, UniProt O88871+Q9Z0U4)
# Construct: from tissue; host or cells: rat brain cortex membranes
# Sequence (O88871 41-940): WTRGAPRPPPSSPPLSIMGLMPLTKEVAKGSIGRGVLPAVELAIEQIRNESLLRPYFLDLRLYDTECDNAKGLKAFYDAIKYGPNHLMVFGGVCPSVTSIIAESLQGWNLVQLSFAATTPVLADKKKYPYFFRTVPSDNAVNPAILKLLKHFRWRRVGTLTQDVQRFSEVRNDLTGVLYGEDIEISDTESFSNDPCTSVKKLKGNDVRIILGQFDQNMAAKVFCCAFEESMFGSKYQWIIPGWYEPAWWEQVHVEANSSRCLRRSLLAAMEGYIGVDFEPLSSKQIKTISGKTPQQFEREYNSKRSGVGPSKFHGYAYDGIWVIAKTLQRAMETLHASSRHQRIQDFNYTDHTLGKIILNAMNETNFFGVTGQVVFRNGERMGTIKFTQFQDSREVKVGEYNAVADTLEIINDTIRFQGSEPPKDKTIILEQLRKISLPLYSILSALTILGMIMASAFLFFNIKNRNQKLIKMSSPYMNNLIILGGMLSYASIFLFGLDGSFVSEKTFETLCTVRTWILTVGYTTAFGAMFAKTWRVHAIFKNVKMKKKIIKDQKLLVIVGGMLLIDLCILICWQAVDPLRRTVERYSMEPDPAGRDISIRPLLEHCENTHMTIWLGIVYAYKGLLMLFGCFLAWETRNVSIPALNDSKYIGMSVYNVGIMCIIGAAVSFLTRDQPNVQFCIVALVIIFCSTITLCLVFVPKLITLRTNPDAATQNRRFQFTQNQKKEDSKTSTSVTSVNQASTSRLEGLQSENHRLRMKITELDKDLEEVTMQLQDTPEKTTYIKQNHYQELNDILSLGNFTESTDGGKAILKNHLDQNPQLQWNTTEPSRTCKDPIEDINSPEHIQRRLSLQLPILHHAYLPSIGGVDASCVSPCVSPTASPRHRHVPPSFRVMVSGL
# Sequence (Q9Z0U4 17-960 limits assumed): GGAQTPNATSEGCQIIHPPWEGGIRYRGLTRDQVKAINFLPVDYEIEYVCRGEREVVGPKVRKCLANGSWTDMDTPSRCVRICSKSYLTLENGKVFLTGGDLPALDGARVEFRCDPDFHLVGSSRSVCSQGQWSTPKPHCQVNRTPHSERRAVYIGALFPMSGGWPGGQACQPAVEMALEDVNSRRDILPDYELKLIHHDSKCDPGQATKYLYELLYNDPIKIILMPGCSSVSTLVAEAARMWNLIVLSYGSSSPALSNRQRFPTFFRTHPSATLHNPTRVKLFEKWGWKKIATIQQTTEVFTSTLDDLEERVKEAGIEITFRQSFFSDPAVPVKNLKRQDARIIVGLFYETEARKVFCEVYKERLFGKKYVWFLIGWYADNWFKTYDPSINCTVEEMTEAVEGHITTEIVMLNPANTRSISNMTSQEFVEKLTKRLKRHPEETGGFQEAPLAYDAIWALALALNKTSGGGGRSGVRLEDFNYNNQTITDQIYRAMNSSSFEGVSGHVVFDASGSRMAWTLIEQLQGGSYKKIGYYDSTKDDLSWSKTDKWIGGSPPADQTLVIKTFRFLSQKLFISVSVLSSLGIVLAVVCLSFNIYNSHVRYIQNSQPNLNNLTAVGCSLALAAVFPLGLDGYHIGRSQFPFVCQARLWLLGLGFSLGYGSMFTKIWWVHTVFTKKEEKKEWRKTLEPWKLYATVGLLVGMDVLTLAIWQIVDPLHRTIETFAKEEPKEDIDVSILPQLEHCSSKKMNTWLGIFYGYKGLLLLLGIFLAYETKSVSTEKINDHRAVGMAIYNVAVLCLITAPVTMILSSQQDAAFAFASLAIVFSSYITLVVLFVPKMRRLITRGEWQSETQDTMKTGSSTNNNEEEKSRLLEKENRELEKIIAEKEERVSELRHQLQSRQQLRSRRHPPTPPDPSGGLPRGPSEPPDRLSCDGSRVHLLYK
# experiment.summary: In vitro [35S]GTPγS binding assay in rat cortical membranes
# Type: biochemical
# measurement.conditions: applicant's test system; read-out: EC50 in our in vitro [35S]GTPγS test system
parameter: pEC50
Conceptually, pEC50 converts a concentration in mol/L into minus its log10.

What measured pEC50 goes with Cc1cc(N2CCCCC2CCO)n2nc(-c3ccc(Cl)cc3)cc2n1 (stereo not shown) [CMPPE] ? 6.21

====

# tested.on: GABAB receptor (Rattus norvegicus, UniProt O88871+Q9Z0U4)
# Construct: from tissue; host or cells: rat brain cortex membranes
# experiment.summary: In vitro [35S]GTPγS binding assay in rat cortical membranes
# Format: biochemical
# measurement.conditions: [35S]GTPγS binding, rat cortical membranes; read-out: In vitro PAM potency (PAM EC50)
pEC50: −log10 of the molar value.
Would you mind telling me the reported pEC50 of each entry?

What measured pEC50 goes with CC[C@]1(C(=O)O)CCCN(c2c(C(C)C)c(C)nc3c(F)c(-c4ccc(C(F)(F)F)cc4)nn23)C1 [Example 15] ? 8.00 to 9.00

What measured pEC50 goes with COCC1(C(=O)O)CCCN(c2c(C(C)C)c(C)nc3cc(-c4ccc(C(F)(F)F)cc4F)nn23)C1 (stereo not shown) [Example 17] ? 8.00 to 9.00

What measured pEC50 goes with Cc1nc2cc(-c3ccc(C(F)(F)F)cc3)nn2c(N2CCC[C@](C(=O)O)(C(C)C)C2)c1C(C)C [Example 10] ? 8.00 to 9.00

What measured pEC50 goes with CC[C@@]1(C(=O)O)CCCN(c2c(C(C)C)c(C)nc3cc(-c4ccc(Cl)cc4)nn23)C1 [Example 21] ? 7.00 to 8.00
